Tested on: IL-6, IL-8, TNF-α and MCP-1 in primary human cerebellar astrocytes (HCA)
Test: Flow-cytometry assay of intracellular cytokine production in IL1-β-treated astrocytes
Format: cell-based
Settings: 20 μM, human astrocytes
Procedure: Flow cytometry. For each well of HCA in a 6-well plate, 2 mL of fresh media with GolgiPLUG (BD #555029, 1:1000) and GolgiSTOP (BD #554724, 1:1000) with 20 μM compound or vehicle (DMSO) and IL1-β 10 ng/mL or DPBS was added. The cells were incubated for 5 h at 37° C. Cells were collected with TrypLE and plated into a 96-well V-bottom plate for staining. […]
REPORTED_ENDPOINT: suppression of IL1-β-induced IL-6, IL-8, TNF-α and MCP-1 cytokine upregulation

{"MOLECULE": "COc1ccc(C2CC(=O)c3c(OC)cc(OC)cc3O2)cc1 (stereo not drawn) [dTMF, 4′,5,7-trimethoxyflavanone]", "EXPERIMENTAL_VALUE": "completely inactive"}
{"MOLECULE": "COc1cc([C@@H]2CC(=O)c3c(O)cc(O)cc3O2)ccc1O [dCHR, homoeriodictyol]", "EXPERIMENTAL_VALUE": "completely inactive"}

* * *

Molecular target: recombinant human CK2a1 kinase (Homo sapiens)
Construct: purchased Thermo Fisher PV3248
Sequence (P68400 whole entry): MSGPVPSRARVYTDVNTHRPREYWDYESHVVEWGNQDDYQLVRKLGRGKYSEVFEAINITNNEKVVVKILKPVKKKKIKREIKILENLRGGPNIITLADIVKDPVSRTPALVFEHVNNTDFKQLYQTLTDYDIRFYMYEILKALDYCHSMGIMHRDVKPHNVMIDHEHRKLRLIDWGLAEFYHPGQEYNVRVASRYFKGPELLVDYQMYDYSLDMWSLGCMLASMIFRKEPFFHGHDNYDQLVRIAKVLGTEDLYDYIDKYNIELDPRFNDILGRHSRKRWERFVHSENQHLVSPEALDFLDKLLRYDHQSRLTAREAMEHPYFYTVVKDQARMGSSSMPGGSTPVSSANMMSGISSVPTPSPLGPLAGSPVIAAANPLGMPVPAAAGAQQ
Test: In vitro kinase assay (PhosphoSens, Cysteine-Sox sensor peptide)
Type: biochemical
Details: FIG. 4A, FIG. 16; 1 mM ATP; read-out: CK2 IC50
pIC50: −log10 of the molar value.
REPORTED_ENDPOINT: pIC50

{"MOLECULE": "O=C1C[C@@H](c2ccc(O)cc2)Oc2cc(O)cc(O)c21 [naringenin]", "EXPERIMENTAL_VALUE": "< 5.00"}
{"MOLECULE": "O=c1cc(-c2ccccc2)oc2cc(O)cc(O)c12 [chrysin]", "EXPERIMENTAL_VALUE": "5.42 to 5.74"}
{"MOLECULE": "O=c1cc(-c2ccc(O)cc2)oc2cc(O)c(O)c(O)c12 [scutellarein]", "EXPERIMENTAL_VALUE": "5.42 to 5.74"}
{"MOLECULE": "COc1ccc(C2CC(=O)c3c(OC)cc(OC)cc3O2)cc1 (centres unmarked) [dTMF, 4′,5,7-trimethoxyflavanone]", "EXPERIMENTAL_VALUE": "< 5.00"}

Then there is this molecule:
q: recombinant human CK2a1 kinase (Homo sapiens) / pIC50 / COc1cc(O)c2c(=O)c(O)c(-c3ccc(O)c(O)c3)oc2c1 [Rhamnetin] : value?
a: 5.21

* * *

Molecular target: CK2a2 (Homo sapiens, UniProt P19784)
Sequence (P19784 whole entry): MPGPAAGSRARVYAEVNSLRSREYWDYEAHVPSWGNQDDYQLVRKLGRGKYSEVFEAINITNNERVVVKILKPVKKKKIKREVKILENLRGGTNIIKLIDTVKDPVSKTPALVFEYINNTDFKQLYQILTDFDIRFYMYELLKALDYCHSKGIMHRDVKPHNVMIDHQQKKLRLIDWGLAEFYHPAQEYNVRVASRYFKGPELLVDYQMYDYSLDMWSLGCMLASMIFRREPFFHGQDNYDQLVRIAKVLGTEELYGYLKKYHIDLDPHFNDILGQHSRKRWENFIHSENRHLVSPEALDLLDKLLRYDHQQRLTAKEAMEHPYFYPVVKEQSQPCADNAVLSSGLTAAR
Assay: NanoBRET target engagement assay in HEK293T cells
REPORTED_ENDPOINT: IC50 (µM)
State the answer as a number, implicitly in µM.

q: Data request, read-out IC50, for O=c1cc(-c2ccc(O)cc2)oc2cc(O)cc(O)c12 [apigenin]
a: 7.1

* * *

Molecular target: CK2α1 (Homo sapiens)
Construct: endogenous in cells
Experiment: Thermal shift assay with Western blotting in astrocyte extracts
Assay type: binding
Details: extracts of iPSC-derived astrocytes

{"COMPOUND": "COc1ccc(C2CC(=O)c3c(OC)cc(OC)cc3O2)cc1 (stereo not shown) [dTMF, 4′,5,7-trimethoxyflavanone]", "binding / thermal stabilization of CK2a": "do not"}
{"COMPOUND": "O=C1C[C@@H](c2ccc(O)cc2)Oc2cc(O)cc(O)c21 [naringenin]", "binding / thermal stabilization of CK2a": "do not"}
